Test: Cell viability assay (MTT)
Conditions: human, Huh7 cells
quantity kind: CC50 at 72 h

| molecule | quantity kind | measured result |
| --- | --- | --- |
| O=C(O)CCc1ccc(O)cc1 [Compound 1, 3-(4-hydroxyphenyl)propionic acid] | CC50 at 72 h | > 1000 µM |

---

Tested on: p6 HEV-Luc Replicon
Assay: HEV replicon Renilla luciferase assay in Huh7 cells
Type: cell-based, Hepatitis E Virus
Details: Hepatitis E virus, Huh-7, 72 h, read-out: 50% inhibitory concentration (IC50), HEV replicon
quantity kind: IC50 (µM)

| compound | quantity kind | scale unit | measured result |
| --- | --- | --- | --- |
| O=C(O)CCc1ccc(O)cc1 [Compound 1, 3-(4-hydroxyphenyl)propionic acid] | IC50 | µM | 77.1 |
